System: MAP4K4
Conditions: concentration: 1 μM, replicates: in singlicate; n = 1;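 note: KINOMEscan kinase panel screen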
measured.metric: %Inh

Query: Query %Inh for O=C(CCO)NCCn1ccc2ncnc(Nc3ccc(Oc4cccc(C(F)(F)F)c4)c(Cl)c3)c21
Reply: 3%

Query: Query %Inh for COc1cc2c(Nc3cccc(NC(=O)c4ccccc4)c3)ncnc2cc1OCCCN1CCOCC1
Reply: 0%

Query: Query %Inh for COc1ccc(-c2nc3n(c2-c2ccncc2)CCC3)cc1
Reply: 0%

Query: Query %Inh for CS(=O)(=O)CCNCc1nc(-c2ccc3ncnc(Nc4ccc(OCc5cccc(F)c5)c(Cl)c4)c3c2)cs1.Cl
Reply: 0%

Query: Query %Inh for CNc1nccc(-c2c(-c3ccc(F)cc3)ncn2CCCN2CCOCC2)n1
Reply: 0%

Query: Query %Inh for COc1ccc(Nc2nccc(N3CCC(NC(=O)Nc4ccc5c(c4)OCO5)C3)n2)cc1 (centres unmarked)
Reply: 5%

Query: Query %Inh for CCn1c(-c2ccncc2)nc2cnccc21
Reply: 1%

Query: Query %Inh for COc1ccc(Nc2nccc(N3CCC(NC(=O)c4cccc(NC(C)=O)c4)C3)n2)cc1 (centres unmarked)
Reply: 0%

Query: Query %Inh for C[C@@H]1CCN(C(=O)CO)C[C@@H]1N(C)c1ncnc2[nH]ccc12
Reply: 0%

Query: Query %Inh for COc1ccc(NC(=O)Nc2ccc(C)c(-c3ccc(C(=O)Nc4ccncc4)cc3)c2)cc1
Reply: 0%

Query: Query %Inh for C[C@H]1CC[C@@H](C(=O)Nc2ccccc2)CN1c1cc(-c2ccc3c(N)n[nH]c3c2)nc(N)n1
Reply: 7%

====

System: MYLK4
Conditions: concentration: 1 μM, replicates: in singlicate; n = 1
measured.metric: %Inh (%)
Just the number please, in %, no unit attached.

Query: Query %Inh for O=C(Nc1n[nH]c2nc(-c3ccco3)c(Br)cc12)c1ccc(CN2CCCC2)cc1.O=C(O)[C@H](O)[C@@H](O)C(=O)O [SB-742352]
Reply: 5

Query: Query %Inh for Cc1ccc(NC(=O)c2cccc(C#N)c2)cc1-c1ccc(C(=O)Nc2ccncc2)cc1 [GSK1398463]
Reply: 7

Query: Query %Inh for FC(F)(F)c1ccc(-c2nn3ncccc3c2-c2ccnc(Nc3cccc(C(F)(F)F)c3)n2)cc1 [GW828205]
Reply: 1

Query: Query %Inh for Cl.c1ccc(Cn2ccc3cc(Nc4ncnc5ccccc45)ccc32)cc1 [GW275568]
Reply: 26

Query: Query %Inh for Nc1nc(-c2ccc3c(N)n[nH]c3c2)cc(N2CCC[C@@H](C(=O)Nc3ccccc3)C2)n1.O=C(O)C(F)(F)F.O=C(O)C(F)(F)F [GSK2288359]
Reply: 9

Query: Query %Inh for O=C(CCO)NCCn1ccc2ncnc(Nc3ccc(Oc4cccc(C(F)(F)F)c4)c(Cl)c3)c21
Reply: 6

Query: Query %Inh for Clc1cc(Nc2ncnc3cc[nH]c23)ccc1OCc1ccccn1
Reply: 9

Query: Query %Inh for COc1ccc(NC(=O)c2ccc(-c3cc(-c4nnc(C)o4)ccc3C)cc2)cc1 [GW595885]
Reply: 0

Query: Query %Inh for O=c1cc(N2CCOCC2)nc2n(Cc3cccc(Cl)c3)ccn12 [GSK2296823]
Reply: 0

Query: Query %Inh for CC(=O)Nc1n[nH]c2ncc(-c3ccccc3)cc12 [SB-548492]
Reply: 28

Query: Query %Inh for Fc1cccc(COc2ccc(Nc3ncnc4cc[nH]c34)cc2Cl)c1
Reply: 8

Query: Query %Inh for FC(F)(F)c1cc(Nc2nccc(-c3c(-c4ccc(Cl)cc4)nn4ncccc34)n2)ccc1Cl [GW829351]
Reply: 1

Query: Query %Inh for COC(=O)c1c(-c2ccccc2)c2cc(Cl)ccc2c(=O)n1Cc1ccc(S(C)(=O)=O)cc1
Reply: 5

Query: Query %Inh for OCCOCCn1ccc2ncnc(Nc3ccc(Oc4cccc(Cl)c4)c(Cl)c3)c21
Reply: 0

Query: Query %Inh for CCC(CC)(CC)n1cnc2c(N)ncnc21 [SKF-97620]
Reply: 0

Query: Query %Inh for COC(=O)c1cccc(NC(=O)NCCNc2ccnc(Nc3ccc(F)cc3)n2)c1 [GSK1379883]
Reply: 6

Query: Query %Inh for Cn1ccc2ncnc(Oc3ccc(NC(=O)Nc4cccnc4)c(Cl)c3)c21
Reply: 0

Query: Query %Inh for COc1cc2c(Nc3cccc(NC(=O)c4ccccc4)c3)ncnc2cc1OCCCN1CCOCC1 [GSK223810]
Reply: 2

Query: Query %Inh for CN1c2ccc(-c3ccc(C(=O)NCCO)cc3)cc2-c2[nH]ncc2S1(=O)=O
Reply: 0

Query: Query %Inh for Nc1nccc2scc(-c3ccc4c(c3)CCN4C(=O)Cc3cc(F)ccc3F)c12 [GSK2587663]
Reply: 0
